Every entry's value here was drawn from patent US8318762B2.

Molecular target: recombinant human ACC2 (Homo sapiens, UniProt O00763)
Construct: a full length Cytomax clone of ACC2 was purchased from Cambridge Bioscience Limited; made in house; host or cells: CHO cells (tetracycline induction, pcDNA5 FRT TO-TOPO); purified on a Softlink Soft Release Avidin column
Sequence (O00763 whole entry): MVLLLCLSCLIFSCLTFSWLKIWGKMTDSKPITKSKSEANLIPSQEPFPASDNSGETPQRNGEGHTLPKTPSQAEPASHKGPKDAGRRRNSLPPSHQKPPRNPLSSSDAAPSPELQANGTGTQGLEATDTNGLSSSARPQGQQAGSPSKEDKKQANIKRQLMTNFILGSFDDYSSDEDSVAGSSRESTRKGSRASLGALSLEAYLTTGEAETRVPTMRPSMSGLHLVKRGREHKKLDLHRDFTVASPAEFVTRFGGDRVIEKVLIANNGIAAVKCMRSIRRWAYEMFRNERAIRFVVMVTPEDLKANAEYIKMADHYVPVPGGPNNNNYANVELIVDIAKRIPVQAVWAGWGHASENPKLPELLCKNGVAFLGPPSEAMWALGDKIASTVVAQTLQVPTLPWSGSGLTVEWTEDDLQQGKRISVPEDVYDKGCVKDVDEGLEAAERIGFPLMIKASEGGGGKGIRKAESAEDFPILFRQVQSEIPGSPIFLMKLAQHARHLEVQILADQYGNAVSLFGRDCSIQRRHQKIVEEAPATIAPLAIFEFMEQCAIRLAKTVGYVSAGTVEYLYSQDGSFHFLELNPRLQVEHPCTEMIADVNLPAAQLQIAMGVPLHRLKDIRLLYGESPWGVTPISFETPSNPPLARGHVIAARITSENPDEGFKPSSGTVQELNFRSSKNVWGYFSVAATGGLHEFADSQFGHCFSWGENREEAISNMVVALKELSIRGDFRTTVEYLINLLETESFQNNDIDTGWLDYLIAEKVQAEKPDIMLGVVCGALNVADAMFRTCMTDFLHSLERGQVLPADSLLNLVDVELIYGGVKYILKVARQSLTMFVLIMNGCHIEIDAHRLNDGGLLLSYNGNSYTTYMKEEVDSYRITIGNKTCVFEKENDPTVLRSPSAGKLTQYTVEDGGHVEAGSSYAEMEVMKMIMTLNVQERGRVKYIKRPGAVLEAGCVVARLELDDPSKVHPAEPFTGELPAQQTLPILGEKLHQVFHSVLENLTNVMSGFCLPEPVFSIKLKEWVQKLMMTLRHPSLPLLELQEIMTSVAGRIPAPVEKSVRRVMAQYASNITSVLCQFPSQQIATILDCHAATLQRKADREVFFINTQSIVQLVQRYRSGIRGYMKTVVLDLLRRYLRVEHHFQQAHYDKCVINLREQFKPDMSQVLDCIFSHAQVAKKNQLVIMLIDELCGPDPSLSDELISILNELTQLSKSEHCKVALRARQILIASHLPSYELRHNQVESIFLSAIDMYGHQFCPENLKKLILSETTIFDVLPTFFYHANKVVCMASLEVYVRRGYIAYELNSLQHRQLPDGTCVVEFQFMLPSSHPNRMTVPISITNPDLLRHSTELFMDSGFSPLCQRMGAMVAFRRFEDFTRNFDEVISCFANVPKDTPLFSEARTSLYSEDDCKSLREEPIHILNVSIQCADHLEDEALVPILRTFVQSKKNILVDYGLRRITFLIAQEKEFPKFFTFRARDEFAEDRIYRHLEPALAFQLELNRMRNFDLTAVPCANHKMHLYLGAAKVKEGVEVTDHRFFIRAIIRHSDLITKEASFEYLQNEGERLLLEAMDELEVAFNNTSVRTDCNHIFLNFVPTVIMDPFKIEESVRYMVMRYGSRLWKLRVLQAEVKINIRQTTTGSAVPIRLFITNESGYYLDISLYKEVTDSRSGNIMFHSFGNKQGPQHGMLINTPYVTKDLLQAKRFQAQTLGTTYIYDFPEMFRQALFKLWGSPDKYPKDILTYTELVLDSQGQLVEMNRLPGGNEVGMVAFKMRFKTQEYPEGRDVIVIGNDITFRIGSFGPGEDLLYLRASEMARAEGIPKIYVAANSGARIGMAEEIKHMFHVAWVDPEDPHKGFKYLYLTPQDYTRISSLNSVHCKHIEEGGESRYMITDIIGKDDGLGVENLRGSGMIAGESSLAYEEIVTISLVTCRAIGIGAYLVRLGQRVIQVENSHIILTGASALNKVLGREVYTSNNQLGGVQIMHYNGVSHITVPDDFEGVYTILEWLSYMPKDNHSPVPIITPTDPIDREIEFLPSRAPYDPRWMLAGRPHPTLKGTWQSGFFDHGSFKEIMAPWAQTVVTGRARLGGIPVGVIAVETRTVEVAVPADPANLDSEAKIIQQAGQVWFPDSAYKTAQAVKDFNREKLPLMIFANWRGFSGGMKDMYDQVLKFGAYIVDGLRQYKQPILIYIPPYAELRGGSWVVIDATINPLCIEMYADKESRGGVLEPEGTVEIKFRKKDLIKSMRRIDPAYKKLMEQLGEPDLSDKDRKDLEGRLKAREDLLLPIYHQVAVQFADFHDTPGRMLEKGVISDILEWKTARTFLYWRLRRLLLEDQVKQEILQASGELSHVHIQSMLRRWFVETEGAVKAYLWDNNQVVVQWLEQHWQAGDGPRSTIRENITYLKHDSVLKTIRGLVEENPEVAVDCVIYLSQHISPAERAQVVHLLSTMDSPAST
Test: Measurement of human ACC2 inhibition (recombinant hACC2 Transcreener ADP detection FP assay)
Format: biochemical
Conditions: recombinant hACC2 transcreener assay; read-out: rhACC2 IC50
Experimental: [3] Measurement of human ACC2 inhibition. Human ACC2 inhibition was measured using purified recombinant human ACC2 (hrACC2). […] The ACC2 was expressed in CHO cells by tetracycline induction and harvested in 5 liters of DMEM/F12 with glutamine, biotin, hygromycin and blasticidin with 1 μg/mL tetracycline (Invitrogen, Carlsbad, Calif.). The conditioned medium containing ACC2 was then applied to a Softlink Soft Release Avidin column (Promega, Madison, Wis.) and eluted with 5 mM biotin. […]
REPORTED_PROPERTY: IC50 (nM)

Reference set (8 entries):
>  <TEST_SMILES>
Cc1n[nH]c2c(C)cc(C(=O)N3CCC4(CC3)CC(=O)c3nn(C(C)C)c(C)c3O4)cc12

>  <QUANTITY_UNIT>
nM

>  <IC50>
8

$$$$
>  <TEST_SMILES>
Cc1cc(C(=O)N2CCC3(CC2)CC(=O)c2nn(C(C)C)c(C)c2O3)cc2cn[nH]c12

>  <QUANTITY_UNIT>
nM

>  <IC50>
15

$$$$
>  <TEST_SMILES>
CC(C)(C)n1cc2c(n1)C(=O)CC1(CCN(C(=O)c3ccc4cn[nH]c4c3F)CC1)O2

>  <QUANTITY_UNIT>
nM

>  <IC50>
52

$$$$
>  <TEST_SMILES>
CCn1nc2c(c1C)OC1(CCN(C(=O)c3ccc4cnsc4c3)CC1)CC2=O

>  <QUANTITY_UNIT>
nM

>  <IC50>
411

$$$$
>  <TEST_SMILES>
Cc1n[nH]c2cc(C(=O)N3CCC4(CC3)CC(=O)c3nn(C(C)(C)C)cc3O4)ccc12

>  <QUANTITY_UNIT>
nM

>  <IC50>
28

$$$$
>  <TEST_SMILES>
CCc1n[nH]c2c(Cl)cc(C(=O)N3CCC4(CC3)CC(=O)c3nn(CC)cc3O4)cc12

>  <QUANTITY_UNIT>
nM

>  <IC50>
45

$$$$
>  <TEST_SMILES>
Cc1cc(C(=O)N2CCC3(CC2)CC(=O)c2nn(C(C)C)cc2O3)cc2c1ncn2C

>  <QUANTITY_UNIT>
nM

>  <IC50>
22

$$$$
>  <TEST_SMILES>
CCc1n[nH]c2c(OC)cc(C(=O)N3CCC4(CC3)CC(=O)c3nn(CC)c(C)c3O4)cc12

>  <QUANTITY_UNIT>
nM

>  <IC50>
22

$$$$

P. CCn1cc2c(n1)C(=O)CC1(CCN(C(=O)c3cc(C)c4[nH]nc(Cl)c4c3)CC1)O2
Q. Cc1nc2cc(C(=O)N3CCC4(CC3)CC(=O)c3nn(C(C)(C)C)cc3O4)ccc2n1C
INPUT: In terms of reported IC50, does P or Q have the smaller number? Kindly give the label for the entry you pick.
OUTPUT: P
(P: 19 nM, Q: 47 nM)

a. Cc1cc(C(=O)N2CCC3(CC2)CC(=O)c2nn(C(C)(C)C)cc2O3)cc2c(Cl)n[nH]c12
b. CCc1cc(C(=O)N2CCC3(CC2)CC(=O)c2nn(C(C)(C)C)cc2O3)cc2cn[nH]c12
c. CC(C)(C)n1cc2c(n1)C(=O)CC1(CCN(C(=O)c3ccc4c(c3)NC(=O)CO4)CC1)O2
d. COc1cc(C(=O)N2CCC3(CC2)CC(=O)c2nn(C(C)C)cc2O3)cc2nc(C)oc12
e. CCn1nc2c(c1C)OC1(CCN(C(=O)c3cc(OC)c4[nH]nc(C)c4c3)CC1)CC2=O
INPUT: List by increasing IC50. Response field: labels, in requested order.
OUTPUT: a, b, e, c, d

1. Cc1n[nH]c2cc(C(=O)N3CCC4(CC3)CC(=O)c3nn(C(C)C)cc3O4)ccc12
2. CCn1nc2c(c1C)OC1(CCN(C(=O)c3cc(Cl)c4[nH]nc(C)c4c3)CC1)CC2=O
INPUT: Lab log: flag the item ( 1 or 2 ) with the smaller IC50 figure. Record your answer as the label of the chosen record.
OUTPUT: 2

I. Cc1cc(C(=O)N2CCC3(CC2)CC(=O)c2nn(C(C)(C)C)cc2O3)cc2[nH]ncc12
II. CCn1nc2c(c1C)OC1(CCN(C(=O)c3ccc4c(c3)nc(C)n4CC)CC1)CC2=O
III. CC(C)n1cc2c(n1)C(=O)CC1(CCN(C(=O)c3cc(F)c4cn[nH]c4c3)CC1)O2
IV. CCc1n[nH]c2c(OC)cc(C(=O)N3CCC4(CC3)CC(=O)c3nn(C(C)(C)C)cc3O4)cc12
INPUT: Descending sort on IC50 required. Dear reader, please state the labels in the requested order.
OUTPUT: II, III, I, IV
(II: 481 nM, III: 136 nM, I: 33 nM, IV: 2 nM)
